# EXPERIMENTAL_SYSTEM: hLXRβ (Homo sapiens, UniProt P55055)
# Sequence (P55055 222-460 limits assumed): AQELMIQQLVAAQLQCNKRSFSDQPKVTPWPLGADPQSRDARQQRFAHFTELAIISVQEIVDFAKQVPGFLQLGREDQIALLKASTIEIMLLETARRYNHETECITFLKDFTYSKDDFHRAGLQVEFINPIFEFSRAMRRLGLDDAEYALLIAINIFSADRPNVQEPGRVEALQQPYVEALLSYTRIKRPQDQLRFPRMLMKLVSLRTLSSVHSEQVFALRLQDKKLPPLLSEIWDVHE
# PROCEDURE_DETAILS: luciferase assay with GAL-4 chimeric hLXRβ receptor in human embryonic kidney 293 cells
# Format: cell-based
# RUN_PARAMETERS: GAL4-hLXRβ luciferase, HEK293; dose-response 32-1 μM; mean of three-five independent experiments; read-out: LXRβ EC50 (μM) ± SD
MEASURE: EC50 (µM)
Form entry: value (µM) — number only.

Worked set:
- MOLECULE: "CC(C)CC[C@@H](O)[C@@H](C)[C@H]1CC[C@H]2[C@@H]3CC=C4C[C@@H](O)CC[C@]4(C)[C@H]3CC[C@]12C [22R-HC (3), 22(R)-hydroxycholesterol, reference compound]"
  EXPERIMENTAL_SYSTEM: "hLXRβ (Homo sapiens, UniProt P55055)"
  EC50, µM: 4.75
- MOLECULE: "CC[C@@H](C(C)C)[C@H](O)C[C@@H](C)[C@H]1CC[C@H]2[C@@H]3CC=C4C[C@@H](O)CC[C@]4(C)[C@H]3CC[C@]12C [Compound 19, (23R)-3β-Stigmast-5-ene-3,23-diol]"
  EXPERIMENTAL_SYSTEM: "hLXRβ (Homo sapiens, UniProt P55055)"
  EC50, µM: 2.7

With those in mind, consider the next molecule.
Entry "CC[C@@H](C(C)C)[C@@H]1O[C@H]1[C@@H](C)[C@H]1CC[C@H]2[C@@H]3CC=C4C[C@@H](O)CC[C@]4(C)[C@H]3CC[C@]12C" : reported EC50 = ?
12.7
